Target: Type-2 angiotensin II receptor (Homo sapiens)
Experiment: Displacement of [125I]CGP-42112A from human AT2 receptor expressed in HEK293 cells
Format: cell-based
Measured property: Ki (µM)

1) CC[C@H](C)[C@H](NC(=O)c1cccc(Cn2ccnc2)c1)C(=O)NNS(=O)(=O)c1ccc(C)cc1
29
2) CC[C@H](C)[C@H](NC(=O)c1cccc(Cn2ccnc2)c1)C(=O)Nc1nccs1
42

P = CC[C@H](C)[C@H](NC(=O)c1cccc(Cn2ccnc2)c1)C(=O)NS(=O)(=O)c1ccccc1
Q = CC[C@H](C)[C@H](NC(=O)c1cccc(Cn2ccnc2)c1)C(=O)NNS(=O)(=O)c1ccc(OC)cc1
Asked: Which entry shows the lesser value of Ki here, P or Q ? When you have decided, please share the label of that item.
Given back: Q
(Q: 9.2 µM, P: 18 µM)

###

Molecular target: Type-2 angiotensin II receptor (Homo sapiens) (UniProt P50052)
Experiment: Displacement of [125I]CGP-42112A from human AT2 receptor expressed in HEK293 cells at 1 uM
Assay type: cell-based
Activity calls are given as the source filed them. No cut-off for these calls is given here.
Measured property: inhibition

Worked cases, answers included:
1) CC[C@H](C)[C@H](NC(=O)c1cccc(Cn2ccnc2)c1)C(=O)NS(=O)(=O)c1ccccc1
5%
2) CCCCNC(=O)[C@@H](NC(=O)c1cccc(Cn2ccnc2)c1)[C@@H](C)CC
inactive
3) CC[C@H](C)[C@H](NC(=O)c1cccc(Cn2ccnc2)c1)C(=O)Nc1nccs1
4%
4) CC[C@H](C)[C@H](NC(=O)c1cccc(Cn2ccnc2)c1)C(=O)NNS(=O)(=O)c1c(C)cc(C)cc1C
10%
5) CC[C@H](C)[C@H](NC(=O)c1cccc(Cn2ccnc2)c1)C(=O)NNS(=O)(=O)c1ccc(C)cc1
4%

Reported inhibition ( "CC[C@H](C)[C@H](NC(=O)c1cccc(Cn2ccnc2)c1)C(N)=O" ) = inactive

Reported inhibition ( "CC[C@H](C)[C@H](NC(=O)c1cccc(Cn2ccnc2)c1)C(=O)NNS(=O)(=O)c1ccccc1" ) = 6%

Reported inhibition ( "CC[C@H](C)[C@H](NC(=O)c1cccc(Cn2ccnc2)c1)C(=O)NCC(F)(F)F" ) = 6%

Reported inhibition ( "CC[C@H](C)[C@H](NC(=O)c1cccc(Cn2ccnc2)c1)C(=O)NC#N" ) = 6%

###

Target: Type-1 angiotensin II receptor (Homo sapiens)
Assay: Binding affinity to AT1 receptor (unknown origin)
Calls of active or inactive are those of the source. No cut-off for these calls is given here.
Measured property: Activity

Worked cases, answers included:
1. CC[C@H](C)[C@H](NC(=O)c1cccc(Cn2ccnc2)c1)C(=O)NO
inactive
2. CC[C@H](C)[C@H](NC(=O)c1cccc(Cn2ccnc2)c1)C(=O)NNS(=O)(=O)c1ccc(C)cc1
inactive
3. CC[C@H](C)[C@H](NC(=O)c1cccc(Cn2ccnc2)c1)c1nn[nH]n1
inactive
4. CC[C@H](C)[C@H](NC(=O)c1cccc(Cn2ccnc2)c1)C(=O)NNS(=O)(=O)c1ccccc1
inactive
5. CC[C@H](C)[C@H](NC(=O)c1cccc(Cn2ccnc2)c1)C(=O)NNC(=O)OC(C)(C)C
inactive

Reported Activity ( "CC[C@H](C)[C@H](NC(=O)c1cccc(Cn2ccnc2)c1)C(=O)NNS(=O)(=O)c1c(C)cc(C)cc1C" ) = inactive

Reported Activity ( "CCCCS(=O)(=O)NNC(=O)[C@@H](NC(=O)c1cccc(Cn2ccnc2)c1)[C@@H](C)CC" ) = inactive

Reported Activity ( "CC[C@H](C)[C@H](NC(=O)c1cccc(Cn2ccnc2)c1)C(=O)O" ) = inactive

###

Molecular target: Type-2 angiotensin II receptor (Homo sapiens)
Assay: Displacement of [125I]CGP-42112A from human AT2 receptor expressed in HEK293 cells at 1 uM
Format: cell-based
Activity calls are given as the source filed them. The rule behind the calls is not given here.
Measured property: inhibition

1) CC[C@H](C)[C@H](NC(=O)c1cccc(Cn2ccnc2)c1)C(=O)NNS(=O)(=O)c1ccc(OC)cc1
3%
2) CC[C@H](C)[C@H](NC(=O)c1cccc(Cn2ccnc2)c1)C(=O)NO
inactive
3) CC[C@H](C)[C@H](NC(=O)c1cccc(Cn2ccnc2)c1)c1nn[nH]n1
inactive

###

Target: UniProt P50052
Sequence (whole entry): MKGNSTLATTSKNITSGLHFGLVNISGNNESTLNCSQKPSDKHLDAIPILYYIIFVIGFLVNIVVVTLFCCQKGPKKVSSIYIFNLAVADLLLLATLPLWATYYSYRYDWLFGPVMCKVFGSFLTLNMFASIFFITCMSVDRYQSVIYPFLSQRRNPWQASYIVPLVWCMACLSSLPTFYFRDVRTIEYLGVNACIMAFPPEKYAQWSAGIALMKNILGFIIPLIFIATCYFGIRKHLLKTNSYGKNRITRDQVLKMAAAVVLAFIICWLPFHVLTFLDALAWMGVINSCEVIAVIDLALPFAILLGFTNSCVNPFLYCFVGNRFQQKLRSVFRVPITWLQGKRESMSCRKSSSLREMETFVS
Assay: Displacement of [125I]CGP-42112A from human AT2 receptor expressed in HEK293 cells at 10 uM
Assay type: cell-based
Measured property: inhibition (%)

Worked cases, answers included:
1. CC[C@H](C)[C@H](NC(=O)c1cccc(Cn2ccnc2)c1)C(=O)NNS(=O)(=O)c1ccc(C)cc1
20
2. CC[C@H](C)[C@H](NC(=O)c1cccc(Cn2ccnc2)c1)C(=O)Nc1nccs1
17
3. CC[C@H](C)[C@H](NC(=O)c1cccc(Cn2ccnc2)c1)C(=O)NO
4
4. CC[C@H](C)[C@H](NC(=O)c1cccc(Cn2ccnc2)c1)C(=O)NNS(=O)(=O)c1c(C)cc(C)cc1C
27

P = CC[C@H](C)[C@H](NC(=O)c1cccc(Cn2ccnc2)c1)C(=O)NC#N
Q = CC[C@H](C)[C@H](NC(=O)c1cccc(Cn2ccnc2)c1)C(=O)NNS(=O)(=O)c1ccc(OC)cc1
R = CCCCNC(=O)[C@@H](NC(=O)c1cccc(Cn2ccnc2)c1)[C@@H](C)CC
Asked: Put the entries in order of inhibition, starting with the largest number. # answer = labels listed in requested order
Given back: Q, P, R
(Q: 20%, P: 9%, R: 3%)

###

Biological target: Type-2 angiotensin II receptor (Homo sapiens)
Experiment: Displacement of [125I]CGP-42112A from human AT2 receptor expressed in HEK293 cells at 10 uM
Type: cell-based
The source made the active and inactive calls. No cut-off for these calls is given here.
Measured property: inhibition

1. CC[C@H](C)[C@H](NC(=O)c1cccc(Cn2ccnc2)c1)C(=O)NCC(F)(F)F
14%
2. CC[C@H](C)[C@H](NC(=O)c1cccc(Cn2ccnc2)c1)C(N)=O
inactive
3. CC[C@H](C)[C@H](NC(=O)c1cccc(Cn2ccnc2)c1)c1nn[nH]n1
inactive
4. CC[C@H](C)[C@H](NC(=O)c1cccc(Cn2ccnc2)c1)C(=O)NS(=O)(=O)c1ccccc1
24%

Now for the molecule whose inhibition we want.
The molecule "CC[C@H](C)[C@H](NC(=O)c1cccc(Cn2ccnc2)c1)C(=O)NNS(=O)(=O)c1ccccc1" , tested on Type-2 angiotensin II receptor (Homo sapiens), showed inhibition of 18%
